# Test system: K562
# Assay Text: Cytotoxicity against human K562 cells assessed as reduction in cell viability after 48 hrs by MTT assay
# Format: cell-based
# Particulars: K562, 48 h
Quantity Measured: pIC50
The value called pIC50 is obtained by taking minus log10 of the concentration in mol/L.

COc1cc2c(cc1OC)CN(CCn1cc(CNc3ccccc3C(=O)NCC(C)C)nn1)CC2    4.21

I have this molecule here, COc1ccc(CCN(C)CCCC(C#N)(c2ccc(OC)c(OC)c2)C(C)C)cc1OC (stereo not given) , and I need its recorded pIC50. 4.09

I have this molecule here, COc1cc2c(cc1OC)CN(CCn1cc(CNc3ccccc3C(=O)Nc3ccc4c(c3)OCO4)nn1)CC2 , and I need its recorded pIC50. 4.38

I have this molecule here, COc1cc2c(cc1OC)CN(CCn1cc(CNc3ccccc3C(=O)NC3CCOCC3)nn1)CC2 , and I need its recorded pIC50. 4.23

I have this molecule here, COc1cc2c(cc1OC)CN(CCn1cc(CNc3ccccc3C(=O)Nc3ccc(C(C)(C)C)cc3)nn1)CC2 , and I need its recorded pIC50. 4.34

* * *

# System: K562
# Assay Text: Cytotoxicity against human K562 cells assessed as reduction in cell viability after 48 hrs by MTT assay
# Assay type: cell-based
# Particulars: K562, 48 h
Where a name gives a salt, the structure may show the parent alone.
Recorded pIC50 values for a group of compounds are listed next.
The value called pIC50 is obtained by taking minus log10 of the concentration in mol/L.

CCCCc1ccc(NC(=O)c2ccccc2NCc2cn(CCN3CCc4cc(OC)c(OC)cc4C3)nn2)cc1    4.12

I have this compound here, COc1cc2c(cc1OC)CN(CCn1cc(CNc3ccccc3C(=O)NCc3ccccc3)nn1)CC2 , and I need its recorded pIC50. 4.30

I have this compound here, COc1cc2c(cc1OC)CN(CCn1cc(CNc3ccccc3C(=O)Nc3ccc(F)cc3)nn1)CC2 , and I need its recorded pIC50. 4.21

I have this compound here, COc1cccc2c1C(=O)c1c(O)c3c(c(O)c1C2=O)C[C@@](O)(C(=O)CO)C[C@@H]3O[C@H]1C[C@H](N)[C@H](O)[C@H](C)O1 [DOXORUBICIN HYDROCHLORIDE] , and I need its recorded pIC50. 6.01

* * *

# Test system: K562
# Assay Text: Cytotoxicity against human K562 cells assessed as reduction in cell viability after 48 hrs by MTT assay
# Format: cell-based
# Particulars: K562, 48 h
Quantity Measured: IC50 (µM)
Number in µM, nothing else.

These recorded examples may help you get a feel for the data.
COc1cc2c(cc1OC)CN(CCn1cc(CNc3ccccc3C(=O)Nc3ccc(OC(F)(F)F)cc3)nn1)CC2    90.2
COc1ccc(NC(=O)c2ccccc2NCc2cn(CCN3CCc4cc(OC)c(OC)cc4C3)nn2)cc1    58.4
COc1cc2c(cc1OC)CN(CCn1cc(CNc3ccccc3C(=O)Nc3cc(OC)c(OC)c(OC)c3)nn1)CC2    43.1
COc1ccc(CCNC(=O)c2ccccc2NCc2cn(CCN3CCc4cc(OC)c(OC)cc4C3)nn2)cc1OC    61.1
COc1cc2c(cc1OC)CN(CCn1cc(CNc3ccccc3C(=O)Nc3ccccc3)nn1)CC2    34.3
COc1cc2c(cc1OC)CN(CCn1cc(CNc3ccccc3C(=O)Nc3ccc([N+](=O)[O-])cc3)nn1)CC2    43.8
COc1cc2c(cc1OC)CN(CCn1cc(CNc3ccccc3C(=O)Nc3ccc(Cl)cc3)nn1)CC2    43.4
COc1cc2c(cc1OC)CN(CCn1cc(CNc3ccccc3C(=O)NCCc3ccccc3)nn1)CC2    42.2

I have this compound here, COc1ccc(NC(=O)c2ccccc2NCc2cn(CCN3CCc4cc(OC)c(OC)cc4C3)nn2)cc1OC , and I need its recorded IC50. 60.5

I have this compound here, COc1cc2c(cc1OC)CN(CCn1cc(CNc3ccccc3C(=O)Nc3ccc(F)c(F)c3)nn1)CC2 , and I need its recorded IC50. 87.9
